# Measured Target: human KV7.1/KCNE1 (tested as KV7.1/KCNE1_K69Q) (Homo sapiens, UniProt P15382+P51787, P15382:K69Q)
# Construct: KV7.1 and KCNE1 cRNAs co-injected in Xenopus laevis oocytes; KCNE1 in excess; four KV7.1 with one to four KCNE1
# Test Method Notes: two-electrode voltage clamp, Xenopus oocytes, reduction of Gmax
Property Name: EC50
Please state the number and follow it with the unit.

// query Which EC50 value is on record for C[C@]12CC[C@@H]3c4ccc(O)cc4CC[C@H]3[C@@H]1CC[C@@H]2O [17β‐E2] ?
// result 2900 nM
